The entries below come with measured EC50 values attached.
Target: T1, cyno PMEL17 (cyno, UniProt A0A2K5WWN0 25-668)
T1 construct: whole, on cells; also called HKB11-cyno; HKB11-cyno-PMEL17
T1 sequence: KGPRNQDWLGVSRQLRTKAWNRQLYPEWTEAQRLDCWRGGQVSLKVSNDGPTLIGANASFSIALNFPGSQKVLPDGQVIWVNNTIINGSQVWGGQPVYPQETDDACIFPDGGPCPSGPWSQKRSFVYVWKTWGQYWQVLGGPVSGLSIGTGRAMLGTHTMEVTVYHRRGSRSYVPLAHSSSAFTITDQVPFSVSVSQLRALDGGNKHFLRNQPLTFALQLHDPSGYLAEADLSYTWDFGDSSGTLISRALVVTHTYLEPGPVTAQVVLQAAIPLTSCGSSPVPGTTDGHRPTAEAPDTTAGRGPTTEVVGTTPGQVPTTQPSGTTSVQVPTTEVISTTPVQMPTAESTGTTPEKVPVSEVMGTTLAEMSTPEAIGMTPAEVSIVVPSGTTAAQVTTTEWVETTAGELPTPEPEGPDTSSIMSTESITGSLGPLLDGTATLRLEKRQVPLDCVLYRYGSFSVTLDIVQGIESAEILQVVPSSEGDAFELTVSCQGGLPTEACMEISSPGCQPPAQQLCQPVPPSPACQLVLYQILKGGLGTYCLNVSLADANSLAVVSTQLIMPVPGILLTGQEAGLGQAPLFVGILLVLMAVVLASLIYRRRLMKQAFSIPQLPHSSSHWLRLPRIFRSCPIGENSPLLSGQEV
Experiment: FACS titration of IgG on HKB11-cyno-PMEL17 cells, Alexa Fluor detection antibody
A number alone suffices; assume nM.

Answered examples (2):
>  <binder>
Y010417 (antibody, V domains shown, Tested as purified human IgG) VH: EVQLVQSGAEVKKPGESLKISCKGSGYSFTSYWIGWVRQMPGKGLEWMGIIYPGDSDTRYSPSFQGQVTISADKSISTAYLQWSSLKASDTAMYYCARGSSAASGLSGDLWGQGTLVTVSS VL: DIQMTQSPSSLSASVGDRVTITCRASQSISSYLNWYQQKPGKAPKLLIYAASSLQSGVPSRFSGSGSGTDFTLTISSLQPEDFATYYCQQDYYSPFTFGQGTKVEIK

>  <propertyName>
EC50

>  <unitsText>
nM

>  <experimentalValue>
6.3

$$$$
>  <binder>
MOR024354 (antibody, V domains shown, Tested as purified human IgG) VH: QVQLLESGGGLVQPGGSLRLSCAASGFTFSSFGMSWVRQAPGKGLEWVSAISYSGSDTYYADSVKGRFTISRDNSKNTLYLQMNSLRAEDTAVYYCARDVGVMDYWGQGTLVTVSS VL: SYELTQPLSVSVALGQTARITCSGDNLGTYYAHWYQQKPGQAPVLVIYSQSHRPSGIPERFSGSNSGNTATLTISRAQAGDEADYYCGAWDAPSPELVFGGGTKLTVL

>  <propertyName>
EC50

>  <unitsText>
nM

>  <experimentalValue>
2.1

$$$$

We now examine a further binder.
**Q:** Recorded EC50 of Y010910 (antibody, V domains shown, Tested as purified human IgG) VH: EVQLVESGGGLVKPGGSLRLSCAASGFTFSNAWMSWVRQAPGKGLEWVGRIKSKTDAGTTDYAAPVKGRFTISRDDSKNTLYLQMNSLKTEDTAVYYCARVASPSAPGGFDYWGQGTLVTVSS VL: DIQMTQSPSSLSASVGDRVTITCRASQGISNYLAWYQQKPGKVPKLLIYAASTLQSGVPSRFSGSGSGTDFTLTISSLQPEDVATYYCQQSLFAPFTFGQGTKVEIK , please.
**A:** 3.5

These measurements were taken from patent US20240189439A1.
